Items are presented alongside their recorded bioavailability.
- assay notes: Oral bioavailability in Sprague-Dawley rat at 3 mg/kg
- Type: ADME, organism-based
- run parameters: in vivo

Illustrative cases are given below, each with its answer.
- compound: "CCO[C@@H](Cc1ccc(OCCN2CC=C(c3ccc(Cl)cc3)CC2)cc1)C(=O)O"
  measured: "> 100%"
- compound: "CN(CCOc1ccc(CC2SC(=O)NC2=O)cc1)c1ccccn1 (stereo not drawn) [ROSIGLITAZONE]"
  measured: "> 100%"

# evaluate next
Request: I'd like to know its bioavailability. The compound in question is COc1ccc(OC(=O)N(CC(=O)O)Cc2ccc(OCCc3nc(-c4ccccc4)oc3C)cc2)cc1 [MURAGLITAZAR]
Result: 96.2%

---

- assay notes: Volume of distribution at steady state in Sprague-Dawley rat at 3 mg/kg, iv
- run parameters: in vivo
outcome measure: Vd (L/kg)
Give the value in L/kg but do not write L/kg after it.

Request: I'd like to know its Vd. The compound in question is CCO[C@@H](Cc1ccc(OCCN2CC=C(c3ccc(Cl)cc3)CC2)cc1)C(=O)O
Result: 0.44

Request: I'd like to know its Vd. The compound in question is COc1ccc(OC(=O)N(CC(=O)O)Cc2ccc(OCCc3nc(-c4ccccc4)oc3C)cc2)cc1
Result: 0.57

---

- system under test: Peroxisome proliferator-activated receptor alpha (Homo sapiens)
- Sequence (Q07869 whole entry): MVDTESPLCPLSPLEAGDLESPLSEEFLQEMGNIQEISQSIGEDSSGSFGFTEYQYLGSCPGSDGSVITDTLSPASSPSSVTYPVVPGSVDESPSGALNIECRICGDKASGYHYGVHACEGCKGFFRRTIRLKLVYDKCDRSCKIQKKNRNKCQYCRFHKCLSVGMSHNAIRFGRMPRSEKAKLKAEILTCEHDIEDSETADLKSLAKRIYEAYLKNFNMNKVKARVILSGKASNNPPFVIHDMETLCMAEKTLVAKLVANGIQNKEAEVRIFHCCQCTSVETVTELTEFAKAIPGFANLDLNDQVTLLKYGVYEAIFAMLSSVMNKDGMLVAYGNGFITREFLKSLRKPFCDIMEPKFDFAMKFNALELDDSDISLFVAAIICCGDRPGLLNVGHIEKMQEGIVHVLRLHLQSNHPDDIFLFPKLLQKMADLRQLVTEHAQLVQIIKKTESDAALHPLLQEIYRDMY
- assay notes: Agonist activity at human PPARalpha expressed in african green monkey CV-1 by co-transfected with GAL4 by dual-glo luciferase reporter gene assay
Class definitions on EC50: lowest (below 2 µM), middle (2 µM to below 8 µM), highest (8 µM or more)

Request: Could you place CCOC(Cc1ccc(OCCN2CC=C(c3cccs3)CC2)cc1)C(=O)O (stereo not drawn) in its proper category? Many thanks.
Result: highest

---

- assay notes: AUC (0 to 24 hrs) in Sprague-Dawley rat at 3 mg/kg, po
- Format: ADME, organism-based
- Set-up: time < 24 hr, dose 3 mg/kg, route oral
- run parameters: plasma
outcome measure: AUC(0-t) at 24 h
Answers without a unit are incomplete; give the number and then its unit.

Illustrative cases are given below, each with its answer.
- compound: "COc1ccc(OC(=O)N(CC(=O)O)Cc2ccc(OCCc3nc(-c4ccccc4)oc3C)cc2)cc1"
  AUC(0-t) at 24 h: "98.8 µM·h"
- compound: "CCO[C@@H](Cc1ccc(OCCN2CC=C(c3ccc(Cl)cc3)CC2)cc1)C(=O)O"
  AUC(0-t) at 24 h: "270 µM·h"

Request: I'd like to know its AUC(0-t) at 24 h. The compound in question is CN(CCOc1ccc(CC2SC(=O)NC2=O)cc1)c1ccccn1 (stereo not drawn)
Result: 94.2 µM·h

---

- system under test: Peroxisome proliferator-activated receptor alpha (Homo sapiens, UniProt Q07869)
- Sequence (Q07869 whole entry): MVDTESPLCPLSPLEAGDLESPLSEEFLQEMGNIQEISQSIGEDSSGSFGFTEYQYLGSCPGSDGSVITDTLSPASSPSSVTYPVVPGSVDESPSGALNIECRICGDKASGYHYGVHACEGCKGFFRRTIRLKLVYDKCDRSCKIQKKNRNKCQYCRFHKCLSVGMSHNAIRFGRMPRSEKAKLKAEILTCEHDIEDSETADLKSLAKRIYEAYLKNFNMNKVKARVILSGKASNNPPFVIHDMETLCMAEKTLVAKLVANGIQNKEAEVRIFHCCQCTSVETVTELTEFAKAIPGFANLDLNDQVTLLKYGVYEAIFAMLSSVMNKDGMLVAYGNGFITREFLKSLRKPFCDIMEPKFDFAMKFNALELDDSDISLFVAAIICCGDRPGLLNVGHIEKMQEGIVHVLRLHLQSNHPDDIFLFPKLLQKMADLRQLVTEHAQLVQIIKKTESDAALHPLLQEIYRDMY
- assay notes: Agonist activity at human PPARalpha expressed in african green monkey CV-1 by co-transfected with GAL4 by dual-glo luciferase reporter gene assay
Class definitions on EC50: bin 1 = under 2 µM, bin 2 = from 2 µM up to 7 µM, bin 3 = 7 µM and over

Reference set, count: 3
- compound: "CC(C)(Oc1cccc(OCCN2CC=C(c3ccc(Cl)cc3)CC2)c1)C(=O)O"
  class name: "bin 1"
- compound: "CCOC(Cc1ccc(OCCN2CC=C(c3cccc(Cl)c3)CC2)cc1)C(=O)O (configuration not stated)"
  class name: "bin 2"
- compound: "CCCc1ccc(C2=CCN(CCOc3ccc(CC(OCC)C(=O)O)cc3)CC2)cc1 (configuration not stated)"
  class name: "bin 2"

Request: Could you place CCOC(Cc1ccc(OCCCN2CC=C(c3ccc(C(F)(F)F)cc3)CC2)cc1)C(=O)O (configuration not stated) in its proper category? Many thanks.
Result: bin 3

Request: Could you place CCOC(Cc1ccc(OCCN2CC=C(c3ccc(Cl)c(Cl)c3)CC2)cc1)C(=O)O (configuration not stated) in its proper category? Many thanks.
Result: bin 1

Request: Could you place CCOC(Cc1ccc(OCCN2CC=C(c3ccc(OC)cc3)CC2)cc1)C(=O)O (configuration not stated) in its proper category? Many thanks.
Result: bin 3

---

Items are presented alongside their recorded pEC50.
- system under test: Peroxisome proliferator-activated receptor alpha (Homo sapiens)
- Sequence (Q07869 whole entry): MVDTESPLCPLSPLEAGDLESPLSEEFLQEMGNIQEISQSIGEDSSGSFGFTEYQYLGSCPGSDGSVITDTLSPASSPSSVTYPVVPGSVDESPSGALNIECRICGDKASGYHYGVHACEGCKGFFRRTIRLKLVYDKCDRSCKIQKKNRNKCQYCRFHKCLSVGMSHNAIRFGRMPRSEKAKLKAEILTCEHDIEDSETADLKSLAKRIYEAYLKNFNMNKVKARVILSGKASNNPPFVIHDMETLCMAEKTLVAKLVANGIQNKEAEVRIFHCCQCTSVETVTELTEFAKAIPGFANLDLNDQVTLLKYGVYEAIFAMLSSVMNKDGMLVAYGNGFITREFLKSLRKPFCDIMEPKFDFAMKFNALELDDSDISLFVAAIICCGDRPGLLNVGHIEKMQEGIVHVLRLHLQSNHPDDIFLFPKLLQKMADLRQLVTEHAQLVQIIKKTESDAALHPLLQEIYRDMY
- assay notes: Agonist activity at human PPARalpha expressed in african green monkey CV-1 by co-transfected with GAL4 by dual-glo luciferase reporter gene assay
pEC50 field: float, defined as -log10 of concentration (mol/L).

Illustrative cases are given below, each with its answer.
- compound: "CCOC(Cc1ccc(OCCN2CC=C(c3ccccc3)CC2)cc1)C(=O)O (stereo unspecified)"
  pEC50: 5.22
- compound: "CCOC(Cc1ccc(OCCN2CC=C(c3ccccn3)CC2)cc1)C(=O)O (stereo unspecified)"
  pEC50: 4.99
- compound: "CCOC(Cc1ccc(OCCCN2CC=C(c3ccc(Cl)cc3)CC2)cc1)C(=O)O (stereo unspecified)"
  pEC50: 5.01
- compound: "CCOC(Cc1ccc(OCCCN2CC=C(c3ccc(Cl)c(Cl)c3)CC2)cc1)C(=O)O (stereo unspecified)"
  pEC50: 5.77
- compound: "CC(Cc1ccc(OCCN2CC=C(c3ccc(Cl)cc3)CC2)cc1)(Oc1ccccc1)C(=O)O (stereo unspecified)"
  pEC50: 4.59

Request: I'd like to know its pEC50. The compound in question is CCOC(Cc1ccc(OCCN2CC=C(c3ccccc3OC)CC2)cc1)C(=O)O (stereo unspecified)
Result: 4.74

Request: I'd like to know its pEC50. The compound in question is CCO[C@@H](Cc1ccc(OCCc2ccc(OS(C)(=O)=O)cc2)cc1)C(=O)O
Result: 5.51

Request: I'd like to know its pEC50. The compound in question is CCOC(Cc1ccc(OCCN2CC=C(c3ccc(CC)cc3)CC2)cc1)C(=O)O (stereo unspecified)
Result: 5.12

---

- system under test: Peroxisome proliferator-activated receptor alpha (Homo sapiens, UniProt Q07869)
- Sequence (Q07869 whole entry): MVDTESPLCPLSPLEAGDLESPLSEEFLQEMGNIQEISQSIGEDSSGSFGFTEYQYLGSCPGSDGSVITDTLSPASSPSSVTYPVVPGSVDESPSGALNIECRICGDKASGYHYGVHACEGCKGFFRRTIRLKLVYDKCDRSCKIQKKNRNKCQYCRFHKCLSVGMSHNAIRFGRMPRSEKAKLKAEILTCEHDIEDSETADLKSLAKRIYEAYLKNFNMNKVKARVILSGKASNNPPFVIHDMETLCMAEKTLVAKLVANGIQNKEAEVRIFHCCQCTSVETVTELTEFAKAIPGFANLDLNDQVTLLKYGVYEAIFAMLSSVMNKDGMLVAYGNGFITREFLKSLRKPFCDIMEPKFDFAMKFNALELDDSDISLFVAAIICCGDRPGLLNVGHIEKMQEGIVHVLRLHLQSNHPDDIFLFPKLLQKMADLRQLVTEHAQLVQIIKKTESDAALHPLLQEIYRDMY
- assay notes: Agonist activity at human PPARalpha expressed in african green monkey CV-1 by co-transfected with GAL4 by dual-glo luciferase reporter gene assay
Items are presented alongside their recorded pEC50.
pEC50 field: float, defined as -log10 of concentration (mol/L).

Illustrative cases are given below, each with its answer.
- compound: "CCC(Cc1ccc(OCCN2CC=C(c3ccc(Cl)cc3)CC2)cc1)C(=O)O (stereo not drawn)"
  measured: 5.41
- compound: "CCOC(Cc1ccc(OCCN2CC=C(c3ccc(F)cc3)CC2)cc1)C(=O)O (stereo not drawn)"
  measured: 5.65
- compound: "CCOC(Cc1ccc(OCCN2CC=C(c3ccc(Cl)cc3Cl)CC2)cc1)C(=O)O (stereo not drawn)"
  measured: 5.95

Request: I'd like to know its pEC50. The compound in question is CCOC(Cc1ccc(OCCN2CC=C(c3cc(Cl)cc(Cl)c3)CC2)cc1)C(=O)O (stereo not drawn)
Result: 5.52

Request: I'd like to know its pEC50. The compound in question is CCOC(Cc1ccc(OCCN2CC=C(c3ccc(Cl)cc3)CC2)cc1)C(=O)O (stereo not drawn)
Result: 5.15

Request: I'd like to know its pEC50. The compound in question is CC(C)(Oc1ccc(OCCN2CC=C(c3ccc(Cl)cc3)CC2)cc1)C(=O)O
Result: 6.06

Request: I'd like to know its pEC50. The compound in question is CCO[C@@H](Cc1ccc(OCCN2CC=C(c3ccc(Cl)c(Cl)c3)CC2)cc1)C(=O)O
Result: 6.21

Request: I'd like to know its pEC50. The compound in question is CCOC(Cc1ccc(OCCN2CC=C(c3cc(Cl)ccc3Cl)CC2)cc1)C(=O)O (stereo not drawn)
Result: 5.95

Request: I'd like to know its pEC50. The compound in question is CCOC(Cc1ccc(OCCN2CC=C(c3cccc(Cl)c3Cl)CC2)cc1)C(=O)O (stereo not drawn)
Result: 7.19

Request: I'd like to know its pEC50. The compound in question is CCOC(Cc1ccc(OCCN2CC=C(c3cccc(OC)c3)CC2)cc1)C(=O)O (stereo not drawn)
Result: 4.76

Request: I'd like to know its pEC50. The compound in question is COc1ccc(OC(=O)N(CC(=O)O)Cc2ccc(OCCc3nc(-c4ccccc4)oc3C)cc2)cc1 [MURAGLITAZAR]
Result: 5.39

Request: I'd like to know its pEC50. The compound in question is CCOC(Cc1ccc(OCCN2CC=C(c3ccccc3Cl)CC2)cc1)C(=O)O (stereo not drawn)
Result: 5.11

Request: I'd like to know its pEC50. The compound in question is CCOC(Cc1ccc(OCCN2CC=C(c3cccc(C(F)(F)F)c3)CC2)cc1)C(=O)O (stereo not drawn)
Result: 5.51

Request: I'd like to know its pEC50. The compound in question is CCO[C@@H](Cc1ccc(OCCN2CC=C(c3ccc(Cl)cc3)CC2)cc1)C(=O)O
Result: 5.76

Request: I'd like to know its pEC50. The compound in question is CCOC(Cc1ccc(OCCN2CC=C(c3ccccc3C(F)(F)F)CC2)cc1)C(=O)O (stereo not drawn)
Result: 6.27

Request: I'd like to know its pEC50. The compound in question is CCOC(Cc1ccc(OCCN2CC=C(c3ccc(C(F)(F)F)cc3)CC2)cc1)C(=O)O (stereo not drawn)
Result: 5.47

Request: I'd like to know its pEC50. The compound in question is CCOC(Cc1ccc(OCCN2CC=C(c3ncccn3)CC2)cc1)C(=O)O (stereo not drawn)
Result: 5.12

Request: I'd like to know its pEC50. The compound in question is CCOC(Cc1ccc(OCCN2CC=C(c3cnccn3)CC2)cc1)C(=O)O (stereo not drawn)
Result: 5.44
